# subject of test: GST-Chk1 (recombinant human Chk1) (Homo sapiens)
# experiment description: Chk1 FlashPlate kinase assay
# settings: 1 uM ATP
observable: IC50

Here is how some compounds turned out for IC50.
# structure, subject of test, IC50
data = [
    ("COc1ccc(Cl)cc1NC(=O)Nc1cnccn1", "GST-Chk1 (recombinant human Chk1) (Homo sapiens)", "< 1 µM"),
    ("O=C(Nc1cnccn1)Nc1cc(Cl)ccc1OCc1cccnc1", "GST-Chk1 (recombinant human Chk1) (Homo sapiens)", "< 1 µM"),
    ("NCCCOc1ccc(Cl)cc1NC(=O)Nc1ccc(C(N)=O)cn1", "GST-Chk1 (recombinant human Chk1) (Homo sapiens)", "< 0.1 µM"),
    ("Cc1ccc(Cl)cc1NC(=O)Nc1cnccn1", "GST-Chk1 (recombinant human Chk1) (Homo sapiens)", "< 1 µM"),
    ("COc1ccc(Cl)c(NC(=O)Nc2cnccn2)c1", "GST-Chk1 (recombinant human Chk1) (Homo sapiens)", "< 1 µM"),
]

Lookup: Look at this compound and give its reported IC50. "COc1ccc(NC(=O)Nc2cnccn2)cc1Cl"
Found: < 20 µM

Lookup: Quick check: IC50 of "O=C(Nc1cnccn1)Nc1cc(Cl)ccc1OCCN1CC1" ?
Found: < 1 µM

* * *

# subject of test: GST-Chk1 (recombinant human Chk1) (Homo sapiens, UniProt O14757)
# Sequence (O14757 whole entry): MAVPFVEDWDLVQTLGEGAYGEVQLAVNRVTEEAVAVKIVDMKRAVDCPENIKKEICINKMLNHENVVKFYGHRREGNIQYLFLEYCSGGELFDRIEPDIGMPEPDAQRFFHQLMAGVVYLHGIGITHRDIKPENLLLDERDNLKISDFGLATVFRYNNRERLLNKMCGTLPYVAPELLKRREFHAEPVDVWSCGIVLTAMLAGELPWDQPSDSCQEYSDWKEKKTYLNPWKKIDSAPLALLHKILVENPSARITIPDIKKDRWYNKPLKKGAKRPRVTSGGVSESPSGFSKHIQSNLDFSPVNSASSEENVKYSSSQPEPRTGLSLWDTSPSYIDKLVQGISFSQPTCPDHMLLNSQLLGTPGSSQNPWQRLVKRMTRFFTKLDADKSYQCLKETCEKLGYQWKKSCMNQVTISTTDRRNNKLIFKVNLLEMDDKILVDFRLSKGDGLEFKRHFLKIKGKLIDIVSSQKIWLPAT
# experiment description: Chk1 FlashPlate kinase assay
# settings: 1 uM ATP
observable: IC50

Known results for molecules:
# molecule, IC50
data = [
    ("Cc1cnc(NC(=O)Nc2cc(Cl)ccc2OCCN(C)C)cn1 [Example 3]", "< 0.1 µM"),
    ("COc1ccc(C(F)(F)F)cc1NC(=O)Nc1cnccn1 [Example 13]", "< 1 µM"),
    ("O=C(Nc1cccc(Cl)c1)Nc1cnccn1 [Example 19, 1-(3-Chloro-phenyl)-3-pyrazin-2-yl-urea]", "< 20 µM"),
]

Lookup: Consider the molecule shown here: COC(=O)c1ccc(OC)c(NC(=O)Nc2cnccn2)c1 [Example 12] What is its recorded IC50?
Found: < 1 µM

Lookup: Return reported IC50; argument: CC(C)CCOc1ccc(Cl)cc1NC(=O)Nc1cnccn1 [Example 7]
Found: < 1 µM

Lookup: Query: IC50; subject: Cc1cnc(NC(=O)Nc2cc(Cl)ccc2OCCCN(C)C)cn1 [Example 25]
Found: < 0.1 µM

Lookup: Given the entry N#Cc1ccc(NC(=O)Nc2cc(Cl)ccc2OCCCN)nc1 [Compound 111] , report its measured IC50.
Found: < 0.1 µM

Lookup: // returns reported IC50 for input O=C(Nc1cnccn1)Nc1cc(Cl)ccc1OCCN1CCOCC1 [Example 5]
Found: < 1 µM

Lookup: Can you look up the measured IC50 of Cc1cnc(NC(=O)Nc2cc(Cl)ccc2OCCCNC2CCC2)cn1 [Compound 112] for me?
Found: < 0.1 µM

Lookup: Given COc1cc(Cl)c(C)cc1NC(=O)Nc1cnccn1 [Compound 46] , state its recorded IC50.
Found: < 1 µM

Lookup: What value of measured IC50 is listed for O=C(Nc1cnccn1)Nc1cnccn1 [Example 23, 1,3-Di-pyrazin-2-yl-urea] ?
Found: < 20 µM

Lookup: Endpoint output: IC50 of CN(C)CCCOc1ccc(Cl)cc1NC(=O)Nc1cnccn1 [Example 1] . Value?
Found: < 0.1 µM

* * *

IC50 by entry:
# subject of test: GST-Chk1 (recombinant human Chk1) (Homo sapiens)
# experiment description: Chk1 FlashPlate kinase assay
# settings: 1 uM ATP

# compound, IC50
data = [
    ("COc1ccc(NC(=O)Nc2cnccn2)c(OC)c1 [Example 14]", "< 1000 nM"),
    ("COc1ccc(C)cc1NC(=O)Nc1cnccn1 [Example 8]", "< 1000 nM"),
    ("COc1ccc(NC(C)=O)cc1NC(=O)Nc1cnccn1 [Example 11]", "< 1000 nM"),
    ("Cc1cnc(NC(=O)Nc2cc(Cl)ccc2OCC(C)(C)CN)cn1 [Compound 109]", "< 100 nM"),
    ("O=C(Nc1ccc(N2CCCCC2)cc1)Nc1cnccn1 [Example 21]", "< 20000 nM"),
]

Lookup: Query: IC50; subject: CN(C)CCOc1ccc(Cl)cc1NC(=O)Nc1cnccn1 [Example 2]
Found: < 100 nM

Lookup: Reported IC50, compound COc1ccc(Cl)cc1NC(=O)Nc1ccncn1 [Example 16] : ____
Found: < 20000 nM

Lookup: May I ask what IC50 has been recorded for O=C(Nc1cnccn1)Nc1ccccc1OC(F)(F)F [Example 9] ?
Found: < 1000 nM

Lookup: Field request: IC50 | item: COc1ccccc1NC(=O)Nc1cnccn1 [Example 17, 1-(2-Methoxy-phenyl)-3-pyrazin-2-yl-urea]
Found: < 20000 nM

Lookup: Look up IC50: O=C(Nc1ccc2c(c1)OCO2)Nc1cnccn1 [Example 24]
Found: < 20000 nM
